- ASSAYED_SYSTEM: the molecule itself
- TEST_DESCRIPTION: thioflavin T

PROTEIN: PLIN4-4mer[689:] (domain or fragment, human, UniProt Q96Q06 689-820, looked up) AKTVLTGTKDTVTTGLMGAVNVAKGTVQTSVDTTKTVLTGTKDTVCSGVTGAANVAKGAIQGGLDTTKSVLTGTKDAVSTGLTGAVKLAKGTVQTGMDTTKTVLTGTKDAVCSGVTGAANVAKGAVQMGVDT
binding result: binds
--
PROTEIN: PLIN4-4mer[557:] (domain or fragment, human, UniProt Q96Q06 557-688, looked up) TKSVVIGTKDTMSTGLTGAANVAKGAVQTGVDTAKTVLTGTKDTVTTGLVGAVNVAKGTVQTGMDTTKTVLTGTKDTIYSGVTSAVNVAKGAVQTGLKTTQNIATGTKNTFGSGVTSAVNVAKGAAQTGVDT
binding result: binds

# credit: paper doi:10.1101/2025.06.03.657256
